- Test protocol: small-molecule microarray binders of probe aNog, primary screen, biochemical, biotinylated probe, 635/667 nm fluorescence (AID 1115);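 note: probe is biotinylated aNog protein used at 0.15 µg/mL for 1 h at 4 C; z-score combines 667 nm fluorescence of each spot with its signal to noise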
- Experimental conditions: higher = more signal
Reported composite z-score by item:
Answer field: number only, no words.

Query: For the compound "C=CCNC(=O)[C@@H]1[C@H]2C(=O)O[C@H](c3ccccc3)[C@H](c3ccccc3)N2[C@H](c2ccccc2OCCO)[C@@]12C(=O)Nc1ccc(C#CC3=CCCCC3)cc12" , give its measured composite z-score value.
Result: -0.278

Query: For the compound CCOc1cc(C(O)C2C=CC3C(=O)N(c4ccccc4)C(=O)C3N2Nc2ccc([N+](=O)[O-])cc2)ccc1O (centres undefined) , give its measured composite z-score value.
Result: -0.489

Query: For the compound CCC(CC)C(O)C1C=CC2C(=O)N(c3ccccc3)C(=O)C2N1Nc1ccc(C#N)cc1 (centres undefined) , give its measured composite z-score value.
Result: 1.78

Query: For the compound COc1ccc(C(O)C2C=CC3C(=O)N(C)C(=O)C3N2Nc2ccccc2)cc1OCc1ccccc1 (centres undefined) , give its measured composite z-score value.
Result: 0.289

The reported measurements were obtained from PubChem BioAssay.
